Matrix metalloproteinase-14 (Homo sapiens): reported pIC50 for various compounds.
Remember, pIC50 is on a log scale: it is -log10 of the molar concentration.

Lab note: need pIC50 with Matrix metalloproteinase-14 (Homo sapiens) for entry "CNC(=O)[C@@H](NC(=O)[C@H](CC(C)C)NC(=O)[C@@H](S)CCN1C(=O)N(C)C(C)(C)C1=O)C(C)(C)C" , please look it up.
7.40

Also, O=C(O)CCC(NC(=O)Cc1ccc(Br)cc1)C(=O)NCc1ccc([N+](=O)[O-])cc1 (configuration not stated) please.
4.25

###

- Study system: Macrophage metalloelastase (Homo sapiens, UniProt P39900)
- Sequence (P39900 whole entry): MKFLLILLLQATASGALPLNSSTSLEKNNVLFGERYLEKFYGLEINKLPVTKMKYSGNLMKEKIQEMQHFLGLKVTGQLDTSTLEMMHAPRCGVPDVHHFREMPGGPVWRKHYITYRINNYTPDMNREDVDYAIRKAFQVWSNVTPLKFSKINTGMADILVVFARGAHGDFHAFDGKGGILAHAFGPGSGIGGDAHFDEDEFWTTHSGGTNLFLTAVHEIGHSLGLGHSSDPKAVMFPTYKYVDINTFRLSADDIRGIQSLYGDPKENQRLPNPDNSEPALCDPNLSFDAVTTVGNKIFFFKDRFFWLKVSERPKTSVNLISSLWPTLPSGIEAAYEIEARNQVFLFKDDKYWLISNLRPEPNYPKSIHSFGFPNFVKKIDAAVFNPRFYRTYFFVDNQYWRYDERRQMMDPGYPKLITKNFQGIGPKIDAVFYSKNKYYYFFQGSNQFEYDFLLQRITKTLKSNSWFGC
Readout: IC50
Answer with the figure and its unit, nothing else.

# IC50 lookup, item O=C(O)CCC(NC(=O)Cc1ccc(Br)cc1)C(=O)NCc1ccc([N+](=O)[O-])cc1 (stereo unspecified)
138 µM
